Catalogue of molecules with associated inhibition at 1 µM
System: Chikungunya virus (CHIKV)
Assay Notes: microbe, parasite or virus in culture
Assay type: cell-based
Assay Setup: Chikungunya virus, Vero, 48 h, read-out: Percent viral inhibition CHKV
Record the value in %, omitting the unit from your answer.

Example entries and their recorded answers appear below.
molecule=O=C(O)CC1CCN(Cc2cc(Oc3cnc(N4CCCNCC4)nc3)nc(-c3cc(Cl)cc(Cl)c3)c2)CC1 measurement_kind="inhibition at 1 µM" recorded_result=35.2
molecule=CN1CCCN(c2ncc(Oc3cc(CN4CCC(CC(=O)O)CC4)cc(-c4cc(F)cc(Cl)c4)n3)cn2)CC1 measurement_kind="inhibition at 1 µM" recorded_result=17.6
molecule=C[C@@H](O)CN1CCN(c2ncc(Oc3cc(CN4CCC(CC(=O)O)CC4)cc(-c4cc(Cl)cc(Cl)c4)n3)cn2)CC1 measurement_kind="inhibition at 1 µM" recorded_result=20.7
molecule=COC(=O)NCC1CCN(Cc2cc(Oc3cnc(N4CCN(C)CC4)nc3)nc(-c3cc(Cl)cc(Cl)c3)c2)CC1 measurement_kind="inhibition at 1 µM" recorded_result=0
molecule=C[C@]1(O)C[C@@H](N2CCN(c3ncc(Oc4cc(CN5CCC(CC(=O)O)CC5)cc(-c5cc(Cl)cc(Cl)c5)n4)cn3)CC2)C1 measurement_kind="inhibition at 1 µM" recorded_result=34.6
molecule=O=C(O)CCC1CCN(Cc2cc(Oc3ccc(N4CCN(CCO)CC4)nc3)nc(-c3cc(Cl)cc(Cl)c3)c2)CC1 measurement_kind="inhibition at 1 µM" recorded_result=32
molecule=COC(=O)NCC1CCN(Cc2cc(Oc3cnc(N4CCN(CCC(=O)O)[C@@H](C)C4)nc3)nc(-c3cc(Cl)cc(Cl)c3)c2)CC1 measurement_kind="inhibition at 1 µM" recorded_result=28.7
molecule=CNC(=O)NCC1CCN(Cc2cc(Oc3cnc(N4CCN(CCC(N)=O)CC4)nc3)nc(-c3cc(Cl)cc(Cl)c3)c2)CC1 measurement_kind="inhibition at 1 µM" recorded_result=0.69
molecule=CNC(=O)NCC1CCN(Cc2cc(Oc3cnc(N4CCN(CCCS(C)(=O)=O)CC4)nc3)nc(-c3cc(F)cc(Cl)c3)c2)CC1 measurement_kind="inhibition at 1 µM" recorded_result=44.4
molecule="CC(=O)NCC1CCN(Cc2cc(Oc3cnc(N4CCN(CC(C)C(=O)O)CC4)nc3)nc(-c3cc(Cl)cc(Cl)c3)c2)CC1 (stereo not shown)" measurement_kind="inhibition at 1 µM" recorded_result=29.8

Item: `CCN1CCCN(c2ccc(Oc3cc(CN4CCC(CC(=O)O)CC4)cc(-c4cc(Cl)cc(Cl)c4)n3)nn2)CC1` | inhibition at 1 µM: 22

Item: `CN1C2CC1CN(c1cnc(Oc3cc(CN4CCC(CC(=O)O)CC4)cc(-c4cc(Cl)cc(Cl)c4)n3)cn1)C2` | inhibition at 1 µM: 31

Item: `CN1C[C@@H]2C[C@H]1CN2c1cnc(Oc2cc(CN3CCC(CC(=O)O)CC3)cc(-c3cc(Cl)cc(Cl)c3)n2)cn1` | inhibition at 1 µM: 9.36

* * *

System: Chikungunya virus (CHIKV)
Assay Notes: microbe, parasite or virus in culture
Format: cell-based
Assay Setup: Chikungunya virus, Vero, 48 h, read-out: Percent viral inhibition CHKV
Catalogue of compounds with associated inhibition at 1 µM
Record the value in %, omitting the unit from your answer.

Example entries and their recorded answers appear below.
compound=CC(=O)NCC1CCN(Cc2cc(Oc3ccc(N)cc3)cc(-c3cc(Cl)cc(Cl)c3)c2)CC1 measurement_target="Chikungunya virus (CHIKV)" recorded_result=7.42
compound=NC1(CO)CCN(c2ncc(Oc3cc(CN4CCC(CC(=O)O)CC4)cc(-c4cc(Cl)cc(Cl)c4)n3)cn2)CC1 measurement_target="Chikungunya virus (CHIKV)" recorded_result=18.6

Item: `CS(=O)(=O)NCC1CCN(Cc2cc(Oc3ccc(N4CCN(CCC(=O)O)CC4)nc3)nc(-c3cc(Cl)cc(Cl)c3)c2)CC1` | inhibition at 1 µM: 35.5

Item: `CC(=O)NCC1CCN(Cc2cc(Oc3ccc(N4CCN(CC(=O)O)CC4)nc3)nc(-c3cc(Cl)cc(Cl)c3)c2)CC1` | inhibition at 1 µM: 13.1

Item: CC(O)CC1CCN(Cc2cc(Oc3cnc(N4CCN(C)CC4)nc3)nc(-c3cc(Cl)cc(Cl)c3)c2)CC1 (stereo not drawn) | inhibition at 1 µM: 21.7

Item: `O=C(O)CC1CCN(Cc2cc(Oc3ccc(N4C[C@@H]5C[C@H]4CN5)nc3)nc(-c3cc(Cl)cc(Cl)c3)c2)CC1` | inhibition at 1 µM: 22.4

Item: `CNCc1cc(Oc2cnc(N3CCN(CCCS(C)(=O)=O)CC3)nc2)nc(-c2cc(Cl)cc(Cl)c2)c1` | inhibition at 1 µM: 32.9

Item: `O=C(O)CC1CCN(Cc2cc(Oc3cnc(N4CCN(C(CO)CO)CC4)nc3)nc(-c3cc(Cl)cc(Cl)c3)c2)CC1` | inhibition at 1 µM: 21.6

Item: `CC(=O)NCC1CCN(Cc2cc(Oc3ccc(N4CCN(CCP(=O)(O)O)CC4)nc3)nc(-c3cc(Cl)cc(Cl)c3)c2)CC1` | inhibition at 1 µM: 10.1

* * *

Test system: Chikungunya virus (CHIKV)
Assay Notes: microbe, parasite or virus in culture
Assay type: cell-based
Assay Setup: Chikungunya virus, Vero, 48 h, read-out: Percent viral inhibition CHKV
Note that class boundaries on inhibition at 1 µM are band A: < 20%; band B: ≥ 20% and < 30%; band C: ≥ 30%

Sample answers from the record:
compound="CC(=O)NCC1CCN(Cc2cc(Oc3ccc(N4CCN(CC5(CO)CC5)CC4)nc3)nc(-c3cc(Cl)cc(Cl)c3)c2)CC1 [Example 34]" category="band A"
compound="CNC(=O)NCC1CCN(Cc2cc(Oc3cnc(N4CCN(CCC(C)[S+](C)[O-])CC4)nc3)nc(-c3cc(Cl)cc(Cl)c3)c2)CC1 (stereo not shown) [Example 17]" category="band A"
compound="CNC(=O)NCC1CCN(Cc2cc(Oc3cnc(N4CCN(C5CC(C(=O)O)C5)CC4)nc3)nc(-c3cc(Cl)cc(Cl)c3)c2)CC1 (stereo not shown) [Example 221]" category="band C"
compound="CN1CCN(c2ccc(Oc3cc(CN4CCC5(CC4)CNC(=O)OC5)cc(-c4cc(Cl)cc(Cl)c4)n3)cn2)CC1 [Example 141]" category="band B"
compound="CC(CC1CCN(Cc2cc(Oc3cnc(N4CCN(C[C@@H](C)O)CC4)nc3)nc(-c3cc(Cl)cc(Cl)c3)c2)CC1)C(=O)O (stereo partly shown) [Example 301]" category="band B"

Class label required: CC(C)(O)CN1CCN(c2cnc(Oc3cc(CN4CCC(CC(=O)O)CC4)cc(-c4cc(Cl)cc(Cl)c4)n3)cn2)CC1 [Example 343] band C

Class label required: CN1CCN(c2ccc(Oc3cc(CN4CCC(CCO)CC4)cc(-c4cc(Cl)cc(Cl)c4)n3)nn2)CC1 [Example 360] band A

Class label required: CNC(=O)CCN1CCN(c2ncc(Oc3cc(CN4CCC(CNC(C)=O)CC4)cc(-c4cc(Cl)cc(Cl)c4)n3)cn2)CC1 [Example 94] band C

Class label required: O=C(O)CC1CCN(Cc2cc(Oc3cnc(N4CC5CNCC5C4)nc3)nc(-c3cc(Cl)cc(Cl)c3)c2)CC1 (stereo not shown) [Example 161] band B

Class label required: CC(C)N1CCN(c2ncc(Oc3cc(CN4CCC(CC(=O)O)CC4)cc(-c4cc(Cl)cc(Cl)c4)n3)cn2)CC1 [Example 235] band B

Class label required: CC(=O)NCC1CCN(Cc2cc(Oc3cnc(N4CCN(C(C)CCS(C)(=O)=O)CC4)nc3)nc(-c3cc(F)cc(Cl)c3)c2)CC1 (stereo not shown) [Example 372] band A

Class label required: CN1CCN(c2ncc(Oc3cc(CN4CCC(P(C)(C)=O)CC4)cc(-c4cc(Cl)cc(Cl)c4)n3)cn2)CC1 [Example 331] band B

Class label required: CC(CCN1CCN(c2ncc(Oc3cc(CN4CCC(CCO)CC4)cc(-c4cc(Cl)cc(Cl)c4)n3)cn2)CC1)C(=O)O (stereo not shown) [Example 57] band B

* * *

Catalogue of molecules with associated inhibition at 1 µM
Test system: Marburg virus (MARV)
Assay Notes: organism not typed
Type: cell-based
Assay Setup: Vero, 72 h, read-out: Percent viral inhibition MARV
Record the value in %, omitting the unit from your answer.

Example entries and their recorded answers appear below.
molecule=CC(=O)NCC1CCN(Cc2cc(Oc3cnc(N4CCN(CCC(N)=O)CC4)cn3)nc(-c3cc(Cl)cc(Cl)c3)c2)CC1 recorded_result=35.4
molecule=CNCc1cc(Oc2ccc(N3CCC(N)CC3)nc2)nc(-c2cc(C)cc(Cl)c2)c1 recorded_result=65.7
molecule=CC(=O)NCC1(O)CCN(Cc2cc(Oc3ccc(N4CCNCC4)nc3)nc(-c3cc(Cl)cc(Cl)c3)c2)CC1 recorded_result=60.4
molecule="CN1CCN(c2ncc(Oc3cc(CN4CCC(CC(=O)O)CC4)cc(-c4cc(Cl)cc(Cl)c4)n3)cn2)CC(F)C1 (stereo not shown)" recorded_result=44.2
molecule=CNC(=O)NCC1CCN(Cc2cc(Oc3cnc(N4CCN(CCC(=O)O)CC4)nc3)nc(-c3cc(Cl)cc(Cl)c3)c2)CC1 recorded_result=49.3
molecule="CC(CC1CCN(Cc2cc(Oc3ccc(N4CCN(C)CC4)nc3)nc(-c3cc(Cl)cc(Cl)c3)c2)CC1)C(=O)O (stereo not shown)" recorded_result=49.3

We now examine a further molecule.
Item: `CN1CCN(c2cnc(Oc3cc(CN4CCC(CCO)CC4)cc(-c4cc(Cl)cc(Cl)c4)n3)cn2)CC1` | inhibition at 1 µM: 29.9
